Target: glucagon receptor (UniProt P47871 26-477, limits assumed)
Sequence (P47871 26-477 limits assumed): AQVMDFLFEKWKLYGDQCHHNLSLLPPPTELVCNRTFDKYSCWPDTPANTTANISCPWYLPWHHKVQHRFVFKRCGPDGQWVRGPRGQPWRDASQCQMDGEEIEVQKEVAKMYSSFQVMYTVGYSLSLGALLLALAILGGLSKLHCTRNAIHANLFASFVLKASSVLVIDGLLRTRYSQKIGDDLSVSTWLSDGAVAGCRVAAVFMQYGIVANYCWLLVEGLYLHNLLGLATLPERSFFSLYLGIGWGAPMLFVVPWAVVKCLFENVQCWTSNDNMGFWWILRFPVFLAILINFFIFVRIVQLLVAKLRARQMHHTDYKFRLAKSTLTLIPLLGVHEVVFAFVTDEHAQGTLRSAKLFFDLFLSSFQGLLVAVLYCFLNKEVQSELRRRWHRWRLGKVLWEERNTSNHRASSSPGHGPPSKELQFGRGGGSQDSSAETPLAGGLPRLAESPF
Assay: cell-based or functional assay
Where no end group is shown, it is not given here. [ ]: non-standard residue; d: D form. The star is where a group is joined. PEG 40 kDa = PEG (40 kDa) covalently attached to Cys; Palmitoyl = CCCCCCCCCCCCCCCC(=O)*; Aib = CC(C)(N)C(=O)O
Result type: EC50 (µM)
Give bare numbers, in µM.

Consider the reported EC50 for these binders:
stdin: Entry Y[Aib]EGTFTSDYSIYLDKQAA[Aib]EFVNWLLAGGPSSGAPPPSC(PEG 40 kDa)-NH2 [mt-274] needs its EC50 filled in; supply it.
stdout: 0.0691

stdin: Please list EC50 recorded for the binder Y[Aib]EGTFTSDYSIYLDKQAA[Aib]EFVC(PEG 40 kDa)WLLAGGPSSGAPPPSK(Palmitoyl)-NH2 [mt-298]
stdout: 0.00176

stdin: Provide EC50 value for the following binder: Y[Aib]EGTFTSDYSIYLDKQAA[Aib]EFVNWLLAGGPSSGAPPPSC-NH2 [mt-256]
stdout: 0.0589

stdin: Supply measured EC50 of Y[Aib]EGTFTSDYSIYLDKQAA[Aib]EFVC(PEG 40 kDa)WLLAGGPSSGAPPPSK-NH2 (not fully specified) [mt-311] in your reply.
stdout: 0.197

stdin: Annotate the binder Y[Aib]EGTFTSDYSIYLDKQAA[Aib]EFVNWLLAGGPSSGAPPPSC(PEG 40 kDa)-NH2 [mt-295] with its measured EC50.
stdout: 0.0873

Further cases:
stdin: Answer with the recorded EC50 for the binder listed here: Y[Aib]EGTFTSDYSIYLDKQAA[Aib]EFVNWLLAGGPSSGAPPPSK-NH2 [mt-263]
stdout: 0.00318
